# PROTOCOL DETAILS: MELAS cybrid and Rieske KO viability enhancers – cell-based, MELAS cybrids, Rieske KO mouse fibroblasts, CellTiter-Glo, primary screen (AID 1508586);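 note: z relative to plate mean and SD of compound and empty wells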
# STUDY CONDITIONS: Rieske KO mouse fibroblast survival, low glucose, CellTiter-Glo 72 h
Lab note: anything with z-score at or over -0.06 counts as class 1; the rest go in class 0.

* Cc1ccc(C(=O)C(C)CN2CCCCC2)cc1 (stereo not given) | class 0
* CCOC(=O)OC(C)OC(=O)[C@@H]1N2C(=O)[C@@H](NC(=O)[C@H](N)c3ccccc3)[C@H]2SC1(C)C (stereo not given in full) | class 0
* Cc1c(NC(=O)c2cccnc2)c(=O)n(-c2ccccc2)n1C | class 1
* CN1CCOC(c2ccccc2)c2ccccc2C1 (stereo not given) | class 1
* COc1ccnc(CS(=O)c2nc3ccc(OC(F)F)cc3[nH]2)c1OC (stereo not given) | class 0

Say whether "CC[C@]12CCCN3CCc4c(n(c5ccccc45)C(=O)C1)[C@@H]32" shows z-score of -0.06 or more.
class 1

Say whether CC(NCCC(c1ccccc1)c1ccccc1)c1ccccc1 (stereo not given) shows z-score of -0.06 or more.
class 0

Say whether "CO[C@@H]1[C@@H](OC(N)=O)[C@@H](O)[C@H](Oc2ccc3c(O)c(NC(=O)c4ccc(O)c(CC=C(C)C)c4)c(=O)oc3c2C)OC1(C)C" shows z-score of -0.06 or more.
class 0

Say whether CN1[C@@H]2CC[C@H]1CC(OC(=O)c1c[nH]c3ccccc13)C2 (stereo not given in full) shows z-score of -0.06 or more.
class 1

###

inhibition values, listed per item
# PROTOCOL DETAILS: CRL1545 cell growth, single agent and combined, cisplatin and BGB IC20 combos (AID 1671464);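 note: cells exposed to compound for 96 hours before readout; 0% = vehicle DMSO and 100% = high DMSO killing control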
# STUDY CONDITIONS: CRL1545 osteosarcoma cells, single agent, at 0.05 µM, stronger effect = higher value
Give the quantity in %, number only.

Consider the worked cases shown below.
• O=C(O)CCCCCCCC(=O)O = -52
• CCN1CCN(c2cc3c(cc2F)c(=O)c(C(=O)O)cn3C2CC2)CC1 = -0.132
• Cc1ccnc2c1NC(=O)c1cccnc1N2C1CC1 = -39.8

Value of inhibition reported for the compound "O=c1oc2c(O)c(O)cc3c(=O)oc4c(O)c(O)cc1c4c23" is -16

Value of inhibition reported for the compound "CCn1cc(C(=O)O)c(=O)c2cc3c(cc21)OCO3" is 12.4

Value of inhibition reported for the compound "O=c1c(O)c(-c2ccc(O)c(O)c2)oc2cc(O)cc(O)c12" is 57.4

###

# PROTOCOL DETAILS: viability loss in pontine glioma line – cell-based, SU-DIPG-XVII, MIPE5.0, CellTiter-Glo, qHTS, dose response (AID 1347060);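 for AC50: cells exposed to compound for 48 hours before viability readout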
# STUDY CONDITIONS: CellTiter-Glo ATP luminescence
Inconclusive results are not listed. The source made the active and inactive calls. No cut-off is given here; in the data, nearly all actives have AC50 up to about 26 µM.
Outcomes you can answer with include only these: Yes (active), No (inactive)

Solved entries (count: 5):
* N[C@@H](Cc1ccc(O)c(O)c1)C(=O)O | No
* CC/C(=C(/CC)c1ccc(O)cc1)c1ccc(O)cc1 | No
* CO[C@@]12[C@H](COC(N)=O)C3=C(C(=O)C(C)=C(N)C3=O)N1C[C@@H]1N[C@@H]12 | Yes
* CN(C)CC/C=C1/c2ccccc2COc2ccc(CC(=O)O)cc21 | No
* CC(C)[C@H](N)C(=O)OCCOCn1cnc2c(=O)[nH]c(N)nc21 | No

Check the results log: what was the call for "NCCS(=O)(=O)O" ?
No
